Molecular target: T1, cyno TfR extracellular domain (analogous construct to human TfR ecd) (cynomolgus monkey, UniProt Q5RDH6 87-760 (Pongo abelii entry))
T1 construct: also called cynoTfR ecd
T1 chain: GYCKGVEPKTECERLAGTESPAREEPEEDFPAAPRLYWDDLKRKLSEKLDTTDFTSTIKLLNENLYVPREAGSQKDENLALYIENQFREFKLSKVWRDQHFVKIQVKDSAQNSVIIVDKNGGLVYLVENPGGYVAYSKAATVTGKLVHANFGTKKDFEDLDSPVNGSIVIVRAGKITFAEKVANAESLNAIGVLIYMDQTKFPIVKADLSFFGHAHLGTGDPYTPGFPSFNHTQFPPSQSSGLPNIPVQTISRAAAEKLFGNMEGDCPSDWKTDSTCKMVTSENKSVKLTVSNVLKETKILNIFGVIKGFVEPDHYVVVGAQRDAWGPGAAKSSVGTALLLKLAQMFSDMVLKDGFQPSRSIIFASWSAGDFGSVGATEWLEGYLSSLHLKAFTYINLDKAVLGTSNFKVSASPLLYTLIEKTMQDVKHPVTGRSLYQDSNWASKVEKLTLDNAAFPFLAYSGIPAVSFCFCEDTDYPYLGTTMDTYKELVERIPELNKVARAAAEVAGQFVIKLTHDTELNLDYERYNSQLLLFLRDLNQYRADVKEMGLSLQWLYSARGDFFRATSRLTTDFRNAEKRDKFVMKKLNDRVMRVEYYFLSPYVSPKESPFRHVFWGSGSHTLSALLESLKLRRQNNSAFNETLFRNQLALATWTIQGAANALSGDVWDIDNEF
Assay: SPR SCK 1:1 fit, IgG
Measurement label: Kd (nM)

- Binder: "G93A (antibody, V domains shown, also called 15G11.v5 G93A (CDR-L3) IgG) VH: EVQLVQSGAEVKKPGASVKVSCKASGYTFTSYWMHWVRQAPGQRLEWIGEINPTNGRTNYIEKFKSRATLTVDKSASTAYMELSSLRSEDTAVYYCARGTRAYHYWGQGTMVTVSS VL: DIQMTQSPSSLSASVGDRVTITCRASDNLYSNLAWYQQKPGKSPKLLVYDATNLADGVPSRFSGSGSGTDYTLTISSLQPEDFATYYCQHFWATPLTFGQGTKVEIK"
  Result units: "nM"
  Value reported: 61
- Binder: "P95A (antibody, V domains shown, also called 15G11.v5 P95A (CDR-L3) IgG) VH: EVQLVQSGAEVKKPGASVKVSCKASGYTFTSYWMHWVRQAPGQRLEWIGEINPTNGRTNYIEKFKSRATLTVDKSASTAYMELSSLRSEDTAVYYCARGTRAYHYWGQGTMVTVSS VL: DIQMTQSPSSLSASVGDRVTITCRASDNLYSNLAWYQQKPGKSPKLLVYDATNLADGVPSRFSGSGSGTDYTLTISSLQPEDFATYYCQHFWGTALTFGQGTKVEIK"
  Result units: "nM"
  Value reported: 57
- Binder: "Q89A (antibody, V domains shown, also called 15G11.v5 Q89A (CDR-L3) IgG) VH: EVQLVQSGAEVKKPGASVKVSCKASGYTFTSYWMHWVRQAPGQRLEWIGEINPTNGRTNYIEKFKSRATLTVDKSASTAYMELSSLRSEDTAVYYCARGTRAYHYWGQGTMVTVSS VL: DIQMTQSPSSLSASVGDRVTITCRASDNLYSNLAWYQQKPGKSPKLLVYDATNLADGVPSRFSGSGSGTDYTLTISSLQPEDFATYYCAHFWGTPLTFGQGTKVEIK"
  Result units: "nM"
  Value reported: 268
- Binder: "hu15G11.v5 IgG (antibody, V domains shown, Human IgG (detected with anti-human Fc gamma); also called humanized 15G11.v5) VH: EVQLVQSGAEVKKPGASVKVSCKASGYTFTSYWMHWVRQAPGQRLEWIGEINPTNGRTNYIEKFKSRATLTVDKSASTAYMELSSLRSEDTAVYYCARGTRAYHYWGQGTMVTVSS VL: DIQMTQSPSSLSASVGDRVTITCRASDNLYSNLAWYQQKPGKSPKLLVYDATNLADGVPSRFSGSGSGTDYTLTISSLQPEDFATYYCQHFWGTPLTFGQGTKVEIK"
  Result units: "nM"
  Value reported: 12
